# system.tested: T1, Human cIAP2 BIR3-only (residues 238-349) (human, UniProt Q13489 238-349)
# T1 construct: range 238-349; Cloned into pHis-TEV vector, produced and purified as for XIAP BIR3; also called cIAP-2 BIR3 protein; not shown: tag from pHis-TEV vector
# protocol.notes: fluorescence polarization, tracer binding to cIAP-2 BIR3
Square brackets hold non-standard residues; d marks the D form. Ends that are not written are not given here. * marks the point of attachment. 5FAM = O=C1OC2(c3ccc(O)cc3Oc3cc(O)ccc32)c2ccc(C(=O)*)cc21; Abu = CC[C@H](N)C(=O)O
measurement.kind: pKd
Please treat pKd as minus the base-10 logarithm of the molar concentration.

Input line: Which value of pKd has been reported for [Abu]RPFK(5FAM) (Mutated Smac N-terminal peptide used as tracer in the FP assays; also called fluorescent tracer) [SM5F, fluorescently tagged mutated Smac peptide (AbuRPFK-Fam)] in the records?
Output line: 8.18
